// provenance: patent US20230348369A1

Give pEC50 for every item shown.
- TARGET_DESC: human NAMPT (Homo sapiens, UniProt P43490)
- Sequence (P43490 whole entry): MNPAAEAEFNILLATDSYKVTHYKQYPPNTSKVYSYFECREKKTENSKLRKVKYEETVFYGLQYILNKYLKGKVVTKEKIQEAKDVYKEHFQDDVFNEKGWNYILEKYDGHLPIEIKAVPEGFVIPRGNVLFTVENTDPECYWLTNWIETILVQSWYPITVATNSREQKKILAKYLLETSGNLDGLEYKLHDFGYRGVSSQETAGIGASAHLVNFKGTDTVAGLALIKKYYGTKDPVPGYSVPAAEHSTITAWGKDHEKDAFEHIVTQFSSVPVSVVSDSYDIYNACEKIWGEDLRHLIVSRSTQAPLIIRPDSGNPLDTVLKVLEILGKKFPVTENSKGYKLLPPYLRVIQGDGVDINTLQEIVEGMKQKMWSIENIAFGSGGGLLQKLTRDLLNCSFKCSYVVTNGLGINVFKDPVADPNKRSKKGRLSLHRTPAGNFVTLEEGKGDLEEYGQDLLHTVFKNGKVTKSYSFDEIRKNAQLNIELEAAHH
- ASSAY_NOTES: Human recombinant enzyme assay (NMN fluorescence biochemical assay, activation of NAMPT)
Note on pEC50: it is the negative log10 of concentration, concentration in mol/L.

Exercise: Indicate the recorded pEC50 value for this molecule: COc1ccc(CNC(=O)NC2CC3(CC(CC(=O)N(C)Cc4ccccc4)C3)C2)cc1 (stereo not drawn)
Key: 4.44

Exercise: Indicate the recorded pEC50 value for this molecule: COc1ccc(CNC(=O)NC2CC3(C2)CC(C(=O)N[C@@H](C)c2ccccc2)C3)cc1 (stereo partly drawn)
Key: 4.39

Exercise: Indicate the recorded pEC50 value for this molecule: COC(=O)[C@H]1C[C@@]2(C[C@H](NC(=O)NCc3ccc(Cl)cc3)C2)C1 (single isomer, unassigned)
Key: 4.65
